Target Or System: HLA-B*35:01
Assay Details: IEDB peptide-MHC binding, purified MHC/direct/fluorescence; filed as Kd, often an IC50 or EC50 that approximates it; bounds were set here for any values at or beyond the usual limits of such assays
Test Conditions: source organism: Corynebacterium glutamicum
Assay Metric: Kd (nM)

- Sequence Content: "FAAAAARTL"
  Assay Metric: "Kd"
  Result Unit: "nM"
  Obs Value: 5.17

* * *

Target Or System: HLA-A*02:01
Assay Details: IEDB peptide-MHC binding, purified MHC/competitive/fluorescence; bounds were set here for any values at or beyond the usual limits of such assays
Test Conditions: source organism: Vaccinia virus
pIC50: −log10 of the molar value.

- Sequence Content: "ILRSLETDL"
  pIC50: 4.66
- Sequence Content: "LRFANPLSN"
  pIC50: "≤ 3.79"
- Sequence Content: "MEKSSKYYI"
  pIC50: "≤ 2.77"

* * *

Target Or System: HLA-A*02:11
Assay Details: IEDB peptide-MHC binding, purified MHC/direct/fluorescence; filed as Kd, often an IC50 or EC50 that approximates it; bounds were set here for any values at or beyond the usual limits of such assays
Test Conditions: source organism: Influenza A virus(A/swine/Henan/2/2004(H9N2))
pKd: −log10 of the molar value.

- Sequence Content: "LLTEVETYV"
  pKd: "≥ 9.00"

* * *

Target Or System: HLA-B*40:13
Assay Details: IEDB peptide-MHC binding, purified MHC/competitive/fluorescence; filed as Kd, often an IC50 or EC50 that approximates it; bounds were set here for any values at or beyond the usual limits of such assays
Test Conditions: source organism: Escherichia coli F11
pKd: −log10 of the molar value.

- Sequence Content: "GLIPQWVTL"
  pKd: 6.34

* * *

Target Or System: HLA-C*12:03
Assay Details: IEDB peptide-MHC binding, purified MHC/direct/fluorescence; filed as Kd, often an IC50 or EC50 that approximates it; bounds were set here for any values at or beyond the usual limits of such assays
Test Conditions: source organism: West Nile virus
pKd: −log10 of the molar value.
Assay Metric: pKd

- Sequence Content: "FVDVGVSAL"
  Obs Value: "≤ 4.70"

* * *

Target Or System: HLA-A*30:01
Assay Details: IEDB peptide-MHC binding, purified MHC/competitive/radioactivity; filed as Kd, often an IC50 or EC50 that approximates it; bounds were set here for any values at or beyond the usual limits of such assays
Test Conditions: source organism: Vaccinia virus WR
pKd: −log10 of the molar value.

- Sequence Content: "KVRKIISKI"
  pKd: 7.57
- Sequence Content: "SAKNSWLNL"
  pKd: 9.24
- Sequence Content: "TVFIRFPHY"
  pKd: 5.90
- Sequence Content: "HVKAFYKFI"
  pKd: 9.46
- Sequence Content: "RASGSYISG"
  pKd: 6.23
- Sequence Content: "RVSVSAILL"
  pKd: 7.83
- Sequence Content: "KYKQSNTNK"
  pKd: 6.99
- Sequence Content: "KVVRLTPQV"
  pKd: 6.75
- Sequence Content: "RLSNGMPTV"
  pKd: 5.03
- Sequence Content: "KNRNSKRSV"
  pKd: 7.49
- Sequence Content: "KTRNVIRNI"
  pKd: 10.14
- Sequence Content: "NVRYVFLYK"
  pKd: 8.00
- Sequence Content: "RTHFSQPSG"
  pKd: 7.84
- Sequence Content: "FFLQRLYFL"
  pKd: 6.11
